src = paper PMC10983002

- Tested on: Kyn levels in BxPC-3 cells
- protocolNotes: Automated (high-throughput) Kyn assay in IFN-γ-stimulated BxPC-3 cells
- Assay type: cell-based, human
- setupConditions: Homo sapiens; supplementary CSV; single point measurement at 7.1 µM, BxPC-3 cells; read-out: Kyn assay inhibition
quantityKind: inhibition at 7.1 µM (%)
Quick reminder: number only, in %, skip the unit.

Reference set (3 entries):
{"structure": "O=C(c1cccs1)n1cc(C(=O)C(F)(F)F)c2ccccc21", "tgt": "Kyn levels in BxPC-3 cells", "reported": 1}
{"structure": "CCc1c(C)n(C(=O)c2ccc(Cl)cc2)c2ccc(Br)cc12", "tgt": "Kyn levels in BxPC-3 cells", "reported": -7}
{"structure": "Cc1c(Cc2ccccc2)c2cc(Br)ccc2n1C(=O)c1ccco1", "tgt": "Kyn levels in BxPC-3 cells", "reported": 42}

For the compound Cc1c(Cc2ccccc2)c2cc(Br)ccc2n1C(=O)c1ccc(Cl)cc1 , what inhibition at 7.1 µM is on record?
12

----------
- Tested on: Kyn levels in BxPC-3 cells
- protocolNotes: Automated (high-throughput) Kyn assay in IFN-γ-stimulated BxPC-3 cells
- Assay type: cell-based, human
- setupConditions: Homo sapiens, BXPC-3, read-out: Kyn assay inhibition
quantityKind: inhibition at 7.1 µM (%)
Quick reminder: number only, in %, skip the unit.

Reference set (4 entries):
{"structure": "O=C(Cn1cc(C(=O)C(F)(F)F)c2ccccc21)NC1CC1", "inhibition at 7.1 µM, %": 45}
{"structure": "Cc1c(C(=O)C(F)(F)F)c2ccccc2n1CC(=O)NC1CCCC1", "inhibition at 7.1 µM, %": 63}
{"structure": "O=C(Cn1cc(C(=O)C(F)(F)F)c2cc(Br)ccc21)N1CCCCCC1", "inhibition at 7.1 µM, %": 88}
{"structure": "O=C(c1cn(Cc2ccc(F)cc2)c2ccccc12)C1CC1", "inhibition at 7.1 µM, %": 59}

Test system Kyn levels in BxPC-3 cells; read-out inhibition at 7.1 µM; what value for COC(=O)Cn1cc(C(=O)C(F)(F)F)c2ccccc21 ?
-7

Test system Kyn levels in BxPC-3 cells; read-out inhibition at 7.1 µM; what value for O=C(c1cn(Cc2ccc(F)cc2)c2ccc(Br)cc12)C(F)(F)F ?
67

Test system Kyn levels in BxPC-3 cells; read-out inhibition at 7.1 µM; what value for Cc1c(C(=O)C(F)(F)F)c2ccccc2n1CC(=O)NCc1ccco1 ?
23

Test system Kyn levels in BxPC-3 cells; read-out inhibition at 7.1 µM; what value for O=C(c1cn(CCOc2ccc(F)cc2)c2ccccc12)C(F)(F)F ?
108

Test system Kyn levels in BxPC-3 cells; read-out inhibition at 7.1 µM; what value for CCc1cccc2c(C(=O)C(F)(F)F)cn(CC(=O)NCCOC)c12 ?
-9

Test system Kyn levels in BxPC-3 cells; read-out inhibition at 7.1 µM; what value for O=C(Cn1cc(C(=O)C(F)(F)F)c2cc(Br)ccc21)NCc1ccco1 ?
93

Test system Kyn levels in BxPC-3 cells; read-out inhibition at 7.1 µM; what value for CCc1cccc2c(C(=O)C(F)(F)F)cn(CC(=O)Nc3cccc(OC)c3)c12 ?
-13

----------
The following compounds are listed with their measured inhibition at 7.1 µM values.
- Test system: Kyn levels in BxPC-3 cells
- protocolNotes: Automated (high-throughput) Kyn assay in IFN-γ-stimulated BxPC-3 cells
- Assay type: cell-based, human
- setupConditions: Homo sapiens, BXPC-3, read-out: Kyn assay inhibition
Quick reminder: number only, in %, skip the unit.

Reference set (2 entries):
{"compound": "CCc1cccc2c(C(=O)C(F)(F)F)cn(CC(=O)NCc3ccco3)c12", "inhibition at 7.1 µM [%]": 37}
{"compound": "COc1ccc(OCCn2c(C)c(C(=O)C(F)(F)F)c3ccccc32)cc1", "inhibition at 7.1 µM [%]": 97}

For the compound COc1ccc(OCCn2cc(C(=O)C(F)(F)F)c3cc(Br)ccc32)cc1 [1d] , what inhibition at 7.1 µM is on record?
12

For the compound O=C(Cn1cc(C(=O)C(F)(F)F)c2ccccc21)N1CCCC1 , what inhibition at 7.1 µM is on record?
-23

For the compound CC(C)Oc1ccc(OCCn2cc(C(=O)C(F)(F)F)c3ccccc32)cc1 , what inhibition at 7.1 µM is on record?
96
